Measured values drawn from patent US8946270B2 for this set.

# Assay: Minilnge Organism: C. felis Test Parameter: PCT Mortal annotations
Test system: Ctenocephalides felis
procedure.text: whole plant or invertebrate
measurement.parameters: Dose: 200 ppm; 72 hr
// units = %; emit number, no label

// known answers, use as guide
compound: COC(CNC(=O)c1ccc(COc2cccc(-c3ccccc3)c2)cn1)OC [Compound 185]
numeric.value: 90

compound: C=C(C)CNC(=O)c1ccc(COc2cccc(-c3ccccc3)c2)cn1 [Compound 197]
numeric.value: 90

Lab note: measured Assay: Minilnge Organism: C. felis Test Parameter: PCT Mortal of C=C(C)CNC(=O)c1ccc(COc2cccc(-c3cccc(F)c3)c2)cn1 [Compound 179] was 70

Lab note: measured Assay: Minilnge Organism: C. felis Test Parameter: PCT Mortal of CC(C)CNC(=O)c1ccc(COc2cccc(-c3ccccc3)c2)cn1 [Compound 198] was 90

Lab note: measured Assay: Minilnge Organism: C. felis Test Parameter: PCT Mortal of O=C(NCC1CC1)c1ccc(COc2cccc(-c3cccc(F)c3)c2)cn1 [Compound 176] was 70

Lab note: measured Assay: Minilnge Organism: C. felis Test Parameter: PCT Mortal of CCCNC(=O)c1ccc(COc2cccc(-c3cccc(F)c3)c2)cn1 [Compound 177] was 40

* * *

Test system: Haematobia irritans
procedure.text: whole plant or invertebrate
measurement.parameters: 5 μg/cm^2; timepoint 4 hrs
Experimental: A solution of the test compound was used to treat a filter paper contained within a Petri dish and the filter paper was allowed to evaporate to dryness. A small piece of absorbent cotton moistened with 10% sucrose and ten adult flies (Haematobia irritans or Stomoxys calcitrans) were added to each dish. Dishes were capped and held at room temperature. Assessments were performed at 4 and 24 hours after infestation in comparison with untreated controls.
# Contact SP Horn Fly PCT Mortality (%) annotations

// known answers, use as guide
molecule: CSCCNC(=O)c1ccc(COc2cc(F)cc(Br)c2)cn1
Contact SP Horn Fly PCT Mortality (%): 0%
--
molecule: O=C(NCC1CC1)c1ccc(COc2cccc(OC(F)(F)F)c2)cn1
Contact SP Horn Fly PCT Mortality (%): 80%
--
molecule: CCCNC(=O)c1ccc(COc2ccc(OC(F)(F)F)cc2)cn1
Contact SP Horn Fly PCT Mortality (%): 60%
--
molecule: Cc1cccc(OCc2ccc(C(=O)NCC(C)C)nc2)c1
Contact SP Horn Fly PCT Mortality (%): 100%
--
molecule: O=C(NCC1CC1)c1ccc(CCOc2ccc(C(F)(F)F)cc2)cn1
Contact SP Horn Fly PCT Mortality (%): 80%
--
molecule: Cc1cccc(OCc2ccc(C(=O)NCC3CC3)nc2)c1
Contact SP Horn Fly PCT Mortality (%): 90%

Lab note: measured Contact SP Horn Fly PCT Mortality (%) of O=C(NCCc1ccccn1)c1ccc(COc2cc(F)cc(Br)c2)cn1 was 80%

Lab note: measured Contact SP Horn Fly PCT Mortality (%) of C=C(C)CNC(=O)c1ccc(COc2cccc(OC(F)(F)F)c2)cn1 was 20%

Lab note: measured Contact SP Horn Fly PCT Mortality (%) of CCCCNC(=O)c1ccc(COc2ccc(OC(F)(F)F)cc2)cn1 was 0%

* * *

System: Haematobia irritans
procedure.text: whole plant or invertebrate
measurement.parameters: 5 μg/cm^2; timepoint 24 hrs
Please use true (1) for Contact SP Horn Fly PCT Mortality (%) under 80% and false (0) for everything else, ties included.

Below, 8 molecules whose answers are already recorded.
molecule: O=C(NCC1CC1)c1ccc(CCOc2cccc(C(F)(F)F)c2)cn1
classification: false (0)
--
molecule: C=C(C)CNC(=O)c1ccc(COc2cccc(OC(F)(F)F)c2)cn1
classification: true (1)
--
molecule: Cc1cccc(OCc2ccc(C(=O)NCC(C)C)nc2)c1
classification: false (0)
--
molecule: O=C(NCC1CC1)c1ccc(COc2cc(F)cc(Br)c2)cn1
classification: false (0)
--
molecule: CSCCNC(=O)c1ccc(COc2cc(F)cc(Br)c2)cn1
classification: true (1)
--
molecule: CCCCNC(=O)c1ccc(COc2ccc(OC(F)(F)F)cc2)cn1
classification: true (1)
--
molecule: CCc1cccc(OCc2ccc(C(=O)NCC3CC3)nc2)c1
classification: false (0)
--
molecule: O=C(NC1CCC1)c1ccc(COc2cc(F)cc(Br)c2)cn1
classification: true (1)

Input CC(C)CNC(=O)c1ccc(C(C)COc2cccc(OC(F)(F)F)c2)cn1 (racemic) ; condition: Contact SP Horn Fly PCT Mortality (%) strictly below 80%. Does it hold?
false (0)

Input COCCCNC(=O)c1ccc(COc2ccc(OC(F)(F)F)cc2)cn1 ; condition: Contact SP Horn Fly PCT Mortality (%) strictly below 80%. Does it hold?
true (1)

Input CC(C)CNC(=O)c1ccc(COCc2cccc(OC(F)(F)F)c2)cn1 ; condition: Contact SP Horn Fly PCT Mortality (%) strictly below 80%. Does it hold?
false (0)

Input O=C(NCC1CC1)c1ccc(COc2ccc(C(F)(F)F)cc2)cn1 ; condition: Contact SP Horn Fly PCT Mortality (%) strictly below 80%. Does it hold?
true (1)

Input Cc1cccc(OCc2ccc(C(=O)NCC3CC3)nc2)c1 ; condition: Contact SP Horn Fly PCT Mortality (%) strictly below 80%. Does it hold?
false (0)
